Test system: MALME-3M melanoma
Assay: NCI-60 one-dose screen, 48 h (100 = growth as untreated, 0 = no growth, -100 = all killed)
Settings: 10 µM unless noted
Compounds without any hit were thinned out: in the full panel of roughly 83,000, 20% have a hit.
parameter: growth (%)

[[record]]
molecule_smiles = "NC1=NC2(CCCC2)N(c2ccc(S(=O)(=O)Nc3nccs3)cc2)C(N)=N1"
parameter = "growth"
unit_string = "%"
recorded_value = 101

[[record]]
molecule_smiles = "C#Cc1cc(C(=O)Nc2ccc(CNCCN3CCOCC3)c(C(F)(F)F)c2)ccc1C"
parameter = "growth"
unit_string = "%"
recorded_value = 92.1

[[record]]
molecule_smiles = "C#C[C@]1(O)CC[C@H]2[C@@H]3CC=C4c5sc(Nc6cc(C)cc(C)c6)nc5CC[C@]4(C)[C@H]3CC[C@@]21C"
parameter = "growth"
unit_string = "%"
recorded_value = -4.28

[[record]]
molecule_smiles = "Cc1c(C(=O)/C=C/c2ccc(Cl)cc2)nnn1-c1ccc2oc(=O)ccc2c1"
parameter = "growth"
unit_string = "%"
recorded_value = 98.8

[[record]]
molecule_smiles = "CN1CCN(c2ccc(C(=O)/C=C/c3cc(F)cc(C(F)(F)F)c3)cc2)CC1"
parameter = "growth"
unit_string = "%"
recorded_value = 91.7


----------
System: SK-MEL-5 melanoma
Test: NCI-60 one-dose screen, 48 h
Conditions: 10 µM unless noted
Experimental: Growth inhibition of the SK-MEL-5 human tumor cell line is measured as a screen for anti-cancer activity. Cells are grown in 96 well plates and exposed to the test compound for 48 hours. Compounds are tested at a single concentration, which is 10^-5 M for most compounds. The reported endpoint is percent growth (GI% or GIPRCNT), where numbers from 0 - 100% represent growth inhibition, and numbers from -100% - 0 represent cell death. For example, a value of 40 represents 60% growth inhibition. […]
Compounds without any hit were thinned out: in the full panel of roughly 83,000, 20% have a hit. Calls of active or inactive are those of the source. Rule for the calls: active = growth percent below 10; inactive = the rest.
Labels: TRUE = active, FALSE = inactive

[[record]]
molecule_smiles = "Cc1cc(C)cc(NC2=C(Cl)C(=O)c3nc(C)ccc3C2=O)c1"
assigned_class = "FALSE"

[[record]]
molecule_smiles = "CCN(CC)c1ccc(/C=N/NC(=O)c2ccc(S(N)(=O)=O)cc2)cc1"
assigned_class = "TRUE"

[[record]]
molecule_smiles = "COc1ccccc1Cn1cc(C#N)c(N)c1C(=O)c1ccc(Br)cc1"
assigned_class = "FALSE"

[[record]]
molecule_smiles = "CS(=O)(=O)c1ccc(/C(=N/N=C(N)N)c2ccc(F)cc2)cc1"
assigned_class = "FALSE"

[[record]]
molecule_smiles = "CCCCc1nc2c(N)nc3ccccc3c2n1Cc1ccc(OC)cc1"
assigned_class = "FALSE"

[[record]]
molecule_smiles = "CC(=O)c1c([Si](C)(C)C)c2cc(C#N)ccn2c1C(=O)c1ccc(Br)cc1"
assigned_class = "FALSE"

[[record]]
molecule_smiles = "O=C(Nc1ccc(N=Cc2c(O)[nH]c3ccccc23)cc1)Nc1ccc(S(=O)(=O)Nc2ncccn2)cc1"
assigned_class = "FALSE"


----------
System: MOLT-4 leukemia
Assay: NCI-60 one-dose screen, 48 h
Conditions: 10 µM unless noted
The panel holds about 83,000 compounds, 20% with a hit somewhere; the sample as a whole holds those more often. Activity calls are given as the source filed them. How the source made its calls: active means growth percent below 10; inactive means the rest.
Labels: active, inactive

[[record]]
molecule_smiles = "Clc1ccc(CSc2nnc(-c3ccc(Cl)cc3)n2-c2ccccc2)cc1"
target_system = "MOLT-4 leukemia"
assigned_class = "inactive"

[[record]]
molecule_smiles = "COc1ccc(C(C)=C(c2ccc(OCCN3CCCCCC3)cc2)c2ccc(OCCN3CCCCCC3)cc2)cc1"
target_system = "MOLT-4 leukemia"
assigned_class = "active"

[[record]]
molecule_smiles = "CC1(C)CC[C@]2(C(=O)O)CC[C@]3(C)C(=CC[C@@H]4[C@@]5(C)CC[C@H](NOCCCN)C(C)(C)[C@@H]5CC[C@]43C)[C@@H]2C1"
target_system = "MOLT-4 leukemia"
assigned_class = "inactive"

[[record]]
molecule_smiles = "COC(=O)c1cccc(NC2=C(Cl)C(=O)c3nc(C)ccc3C2=O)c1"
target_system = "MOLT-4 leukemia"
assigned_class = "inactive"

[[record]]
molecule_smiles = "Cc1ccc(NC(=O)/C=C/c2ccc(OCCCOc3ccc4c(C)cc(=O)oc4c3)cc2)cc1"
target_system = "MOLT-4 leukemia"
assigned_class = "inactive"

[[record]]
molecule_smiles = "O=C(CSc1nc2ccccc2c(=O)n1CCc1ccccc1)Nc1ccc(S(=O)(=O)Nc2ccc(Cl)nn2)cc1"
target_system = "MOLT-4 leukemia"
assigned_class = "inactive"

[[record]]
molecule_smiles = "N#Cc1c(-c2cccs2)cc(-c2cnccn2)nc1SCC(=O)N/N=C/c1ccncc1"
target_system = "MOLT-4 leukemia"
assigned_class = "inactive"


----------
Tested on: M14 melanoma
Assay: NCI-60 one-dose screen, 48 h (100 = growth as untreated, 0 = no growth, -100 = all killed)
Settings: 10 µM unless noted
The panel holds about 83,000 compounds, 20% with a hit somewhere; the sample as a whole holds those more often.
parameter: growth (%)

[[record]]
molecule_smiles = "O=C(O)CC1CCN(c2ccc3nnc(Cl)n3n2)CC1"
target_system = "M14 melanoma"
parameter = "growth"
recorded_value = 94.6

[[record]]
molecule_smiles = "COc1cc(C(=O)c2cc(C(C)=O)c3c(C)cccn23)cc(OC)c1OC"
target_system = "M14 melanoma"
parameter = "growth"
recorded_value = 96.1

[[record]]
molecule_smiles = "CC(=O)N(O)CCCCCNC(=O)CCC(=O)N(O)CCCCCNC(=O)CCC(=O)N(O)CCCCCN(CCCCCCCCCC[P+](c1ccccc1)(c1ccccc1)c1ccccc1)CCCCCCCCCC[P+](c1ccccc1)(c1ccccc1)c1ccccc1"
target_system = "M14 melanoma"
parameter = "growth"
recorded_value = 11


----------
System: TK-10 renal
Test: NCI-60 one-dose screen, 48 h (100 = growth as untreated, 0 = no growth, -100 = all killed)
Settings: 10 µM unless noted
This is part of a sample that, as a whole, favours compounds with a hit. Of some 83,000 tested, about 20% had one in any assay.
Entries and their growth values follow.
parameter: growth (%)

[[record]]
molecule = "Brc1cccc(-c2cc(-c3ccc4c(c3)OC=CO4)[nH]n2)c1"
recorded_value = 108

[[record]]
molecule = "CCc1cc(OC(=O)N2CCN(CCC(C)(COC(C)(C)C)COC(C)(C)C)CC2)ccc1Nc1cc(-c2ccc(-n3cccn3)cc2)[nH]n1"
recorded_value = 103

[[record]]
molecule = "O=C(/C=C/c1ccc(Cl)c(Cl)c1)Nc1ncc(Cc2ccc(Cl)c(Cl)c2)s1"
recorded_value = 95.8

[[record]]
molecule = "Cc1cc2nc(C(Cl)Cl)nc(-c3ccc(S(=O)(=O)N(C)C)cc3)n2n1"
recorded_value = 85

[[record]]
molecule = "COc1ccc(OC)c(NC(=O)CCCCCCNC(=O)C(O)(O)C(F)(F)F)c1"
recorded_value = 12.9

[[record]]
molecule = "CCCCSC1=C(Cl)CN(c2ccccc2)C1=O"
recorded_value = 134

[[record]]
molecule = "CC1=C(C)C(=O)C(Nc2cccc(C(=O)OC(C)(C)C)c2)=CC1=O"
recorded_value = 125

[[record]]
molecule = "Cc1ccc(NC2=C(Cl)C(=O)c3nc(C)ccc3C2=O)c(C)c1"
recorded_value = 126

[[record]]
molecule = "O=C(COc1ccc(/C=C2\\C(=O)Nc3ccc(F)cc32)cc1)Nc1ccccc1"
recorded_value = 118

[[record]]
molecule = "CCOC(=O)c1cccc(NC2=C(Cl)C(=O)C(C)=C(C)C2=O)c1"
recorded_value = 129

[[record]]
molecule = "CCCC[n+]1ccc(SCC(=O)n2ccc3ccccc32)c2ccccc21"
recorded_value = 141

[[record]]
molecule = "CN1CCN(Cc2ccc(NC(=O)c3cncc(C#Cc4cnc(N)nc4)c3)cc2C(F)(F)F)CC1"
recorded_value = 17.4

[[record]]
molecule = "N#C/C(=C\\c1ccc(-c2ccc(Cl)cc2)o1)C(=O)Nc1ncc(Cc2ccc(Br)cc2)s1"
recorded_value = -35.6

[[record]]
molecule = "Cc1ccccc1NC(=O)Nc1nc2ccc([N+](=O)[O-])cc2s1"
recorded_value = 12.2

[[record]]
molecule = "CCn1c2ccc(/C=N/N(C)S(=O)(=O)CCN(C)C)cc2c2cc(/C=N/N(C)S(=O)(=O)CCN(C)C)ccc21"
recorded_value = 142

[[record]]
molecule = "C#Cc1nc(/C=C/C(=O)NO)cs1"
recorded_value = 43

[[record]]
molecule = "O=C(CCCCCCN1CC(=O)N2[C@@H](c3ccc(Cl)s3)c3[nH]c4ccccc4c3C[C@H]2C1=O)NO"
recorded_value = 43.4

[[record]]
molecule = "CC(=O)N1N=C(c2cc3ccccc3oc2=O)CC1c1cn(-c2ccccc2)nc1-c1ccc(C)cc1 (configuration not stated)"
recorded_value = 105

[[record]]
molecule = "CC(C)NC(=O)c1cc(-c2ccc(NC(=O)Nc3ccc(F)cc3)cc2)nc2cccnc12"
recorded_value = 110

[[record]]
molecule = "CN1CCN(c2ccc(Nc3nc(NCCNC(=O)c4ccccc4)c4sccc4n3)cc2)CC1"
recorded_value = 137

[[record]]
molecule = "CCCCCCCCCCCC(=O)NC(C)(C)C(=O)N1CCCC1C(=O)NC(C)(C)C(=O)NC(C)(C)C(=O)N1CCCC1C(=O)NC(C)(C)C(=O)NC(C)(C)C(=O)N1CCCC1C(=O)NC(C)C(=O)NCCC(=O)NC(C)C(=O)NC(C)(C)C(=O)NC(C)(C)C(=O)NC(C)(C)C(=O)NCCC(=O)NC(C)(C)C(=O)NC(C)(C)C(=O)NC(C)(C)C(=O)NC(C)C(=O)NCCC(=O)O (configuration not stated)"
recorded_value = -97.1

[[record]]
molecule = "Clc1cccc(/C=N/Nc2nc(N/N=C/c3cccc(Cl)c3)nc(N3CCOCC3)n2)c1"
recorded_value = 100

[[record]]
molecule = "Cc1ccc2c(n1)C(=O)C(Cl)=C(Nc1ccccc1C(=O)OC(C)(C)C)C2=O"
recorded_value = -84.6

[[record]]
molecule = "Clc1ccc2[nH]cc(-c3cncn3CCc3ccc4c(c3)OCO4)c2c1"
recorded_value = 96.9

[[record]]
molecule = "C=C(C)[C@@H]1CC[C@]2(C(=O)N3CCN(C)CC3)CC[C@]3(C)[C@H](CC[C@@H]4[C@@]5(C)CC[C@H](OP(=O)(OCC)OCC)C(C)(C)[C@@H]5CC[C@]43C)[C@@H]12"
recorded_value = 108

[[record]]
molecule = "CC[C@H](CC[C@@H](C)[C@H]1CC[C@H]2[C@@H]3CC(=O)C4=CC(=O)/C(=C/c5ccc([N+](=O)[O-])cc5)C[C@]4(C)[C@H]3CC[C@]12C)C(C)C"
recorded_value = 104

[[record]]
molecule = "COC(=O)CCCNCCCn1ccc2cc(NCc3cccc(-c4ccccc4)c3C)ccc21"
recorded_value = 115


Hello, the source for this data is PubChem BioAssay (NCI), in case you need it.
